- methodNotes: Equilibrium solubility in various aqueous media (solubility after 2 h)
- Format: physicochemical
- conditionsUsed: water, thermodynamic from solid
quantityMeasured: solubility at 2 h (µg/mL)
Answer in µg/mL, number only, no unit symbol.

Determine from records and report solubility at 2 h for CCCS(=O)(=O)Nc1ccc(F)c(-n2cc(-c3cncnc3)c3nc(N(C)C4CCN(CC)CC4)ccc32)c1F.Cl [Monohydrochloride Salt]
100

====

- methodNotes: Equilibrium solubility in various aqueous media (solubility after 2 h)
- Type: physicochemical
- conditionsUsed: 0.1 M HCl, simulated gastric fluid, thermodynamic from solid; HCl (0.1M)
Form field: solubility at 2 h (one value per entry).
Note to self: number, then unit, no commentary.

| molecule | result |
| --- | --- |
| CCCS(=O)(=O)Nc1ccc(F)c(-n2cc(-c3cncnc3)c3nc(N(C)C4CCN(CC)CC4)ccc32)c1F.Cl [Monohydrochloride Salt] | 60 µg/mL |

As a next step, examine the molecule that follows.
// Input: CCCS(=O)(=O)Nc1ccc(F)c(-n2cc(-c3cncnc3)c3nc(N(C)C4CCN(CC)CC4)ccc32)c1F.O=C(O)CCC(=O)O [Monosuccinate Salt] . Output its solubility at 2 h only.
200 µg/mL

====

- methodNotes: Pharmacokinetics following oral administration to rats
- Format: in vivo, HsdHan:WIST Norway rats
- conditionsUsed: HsdHan:WIST, in vivo; 80 mg/kg oral, rat
quantityMeasured: Tmax (h)
Express it in h; write the number only.

Please report Tmax for the following compound: CCCS(=O)(=O)Nc1ccc(F)c(-n2cc(-c3cncnc3)c3nc(N(C)C4CCN(CC)CC4)ccc32)c1F.O=C(O)CCC(=O)O [Monosuccinate Salt]
2.7

====

- methodNotes: Equilibrium solubility in various aqueous media (solubility after 2 h)
- Format: physicochemical
- conditionsUsed: aqueous buffer, thermodynamic from solid; McIlvaine Buffer (pH 2.2)
quantityMeasured: solubility at 2 h (µg/mL)
The figure you give is taken to be in µg/mL; do not add the unit.

Fill in solubility at 2 h for record CCCS(=O)(=O)Nc1ccc(F)c(-n2cc(-c3cncnc3)c3nc(N(C)C4CCN(CC)CC4)ccc32)c1F.Cl [Monohydrochloride Salt]
400

====

- methodNotes: Pharmacokinetics following oral administration to rats
- Format: in vivo, HsdHan:WIST Norway rats
- conditionsUsed: HsdHan:WIST, plasma; 40 mg/kg oral, rat
A collection of compounds and their measured Cmax
Use µM as the unit, but write only the number.

| compound | Cmax [µM] |
| --- | --- |
| CCCS(=O)(=O)Nc1ccc(F)c(-n2cc(-c3cncnc3)c3nc(N(C)C4CCN(CC)CC4)ccc32)c1F.O=C(O)CCC(=O)O [Monosuccinate Salt] | 6.55 |

Lab note: next compound to report on.
// fetch Cmax given entry CCCS(=O)(=O)Nc1ccc(F)c(-n2cc(-c3cncnc3)c3nc(N(C)C4CCN(CC)CC4)ccc32)c1F.Cl [Monohydrochloride Salt]
0.123

====

- methodNotes: Pharmacokinetics following oral administration to rats
- Assay type: in vivo, HsdHan:WIST Norway rats
- conditionsUsed: HsdHan:WIST, plasma, po; 40 mg/kg dose, rat
quantityMeasured: bioavailability (%)
// note: answer is a bare numeric in %

| compound | quantityMeasured | recordedNumber |
| --- | --- | --- |
| CCCS(=O)(=O)Nc1ccc(F)c(-n2cc(-c3cncnc3)c3nc(N(C)C4CCN(CC)CC4)ccc32)c1F.Cl [Monohydrochloride Salt] | bioavailability | 1 |

Moving on to the next compound.
Identify measured bioavailability corresponding to CCCS(=O)(=O)Nc1ccc(F)c(-n2cc(-c3cncnc3)c3nc(N(C)C4CCN(CC)CC4)ccc32)c1F.O=C(O)CCC(=O)O [Monosuccinate Salt]
50

====

- methodNotes: Pharmacokinetics following oral administration to rats
- Format: in vivo, HsdHan:WIST Norway rats
- conditionsUsed: HsdHan:WIST, plasma; 80 mg/kg oral, rat
quantityMeasured: Cmax (µM)
// units = µM; emit number, no label

Look up and report measured Cmax for this entry: CCCS(=O)(=O)Nc1ccc(F)c(-n2cc(-c3cncnc3)c3nc(N(C)C4CCN(CC)CC4)ccc32)c1F.O=C(O)CCC(=O)O [Monosuccinate Salt]
3.52

====

- methodNotes: Equilibrium solubility in various aqueous media (solubility after 2 h)
- Assay type: physicochemical
- conditionsUsed: aqueous buffer, thermodynamic from solid; 0.1M Citric acid
- Description: Saturated solutions are prepared in well plates by adding an appropriate volume of selected aqueous media (typically in the range of 0.25-1.5 mL) into each well which contains a known quantity of solid drug substance (typically in the range 0.5-5.0 mg). […] The amount of dissolved drug substance is determined by UV spectroscopy. In addition, the pH of the aqueous saturated solution is measured using a glass-electrode pH meter. […]
quantityMeasured: solubility at 2 h (µg/mL)
Report only the number, with the unit µg/mL understood.

Supply solubility at 2 h value. Item: CCCS(=O)(=O)Nc1ccc(F)c(-n2cc(-c3cncnc3)c3nc(N(C)C4CCN(CC)CC4)ccc32)c1F.Cl [Monohydrochloride Salt]
400

====

Readings of solubility at 2 h for the listed compounds
- methodNotes: Equilibrium solubility in various aqueous media (solubility after 2 h)
- Assay type: physicochemical
- conditionsUsed: aqueous buffer, thermodynamic from solid; McIlvaine Buffer (pH 7.4)
Please state the figure in µg/mL; there is no need to write the unit.

| compound | endpointUnit | solubility at 2 h |
| --- | --- | --- |
| CCCS(=O)(=O)Nc1ccc(F)c(-n2cc(-c3cncnc3)c3nc(N(C)C4CCN(CC)CC4)ccc32)c1F.O=C(O)CCC(=O)O [Monosuccinate Salt] | µg/mL | 300 |

Now, please, on to the next compound.
Supply reported solubility at 2 h belonging to this compound: CCCS(=O)(=O)Nc1ccc(F)c(-n2cc(-c3cncnc3)c3nc(N(C)C4CCN(CC)CC4)ccc32)c1F.Cl [Monohydrochloride Salt]
10

====

- methodNotes: Equilibrium solubility in various aqueous media (solubility after 2 h)
- Type: physicochemical
- conditionsUsed: aqueous buffer, thermodynamic from solid; McIlvaine Buffer (pH 4.0)
quantityMeasured: solubility at 2 h (µg/mL)
Entry rule: numbers only, all in µg/mL.

Give the measured solubility at 2 h for CCCS(=O)(=O)Nc1ccc(F)c(-n2cc(-c3cncnc3)c3nc(N(C)C4CCN(CC)CC4)ccc32)c1F.Cl [Monohydrochloride Salt]
100

====

- methodNotes: Equilibrium solubility in various aqueous media (solubility after 2 h)
- Type: physicochemical
- conditionsUsed: aqueous buffer, thermodynamic from solid; McIlvaine Buffer (pH 5.0)
Attribute: solubility at 2 h

| molecule | solubility at 2 h |
| --- | --- |
| CCCS(=O)(=O)Nc1ccc(F)c(-n2cc(-c3cncnc3)c3nc(N(C)C4CCN(CC)CC4)ccc32)c1F.O=C(O)CCC(=O)O [Monosuccinate Salt] | > 5000 µg/mL |

--- query ---
Output solubility at 2 h of CCCS(=O)(=O)Nc1ccc(F)c(-n2cc(-c3cncnc3)c3nc(N(C)C4CCN(CC)CC4)ccc32)c1F.Cl [Monohydrochloride Salt]
200 µg/mL

====

- methodNotes: Equilibrium solubility in various aqueous media (solubility after 2 h)
- Assay type: physicochemical
- conditionsUsed: aqueous buffer, thermodynamic from solid; McIlvaine Buffer (pH 3.0)
quantityMeasured: solubility at 2 h (µg/mL)
Please state the figure in µg/mL; there is no need to write the unit.

Return the recorded solubility at 2 h value; entry: CCCS(=O)(=O)Nc1ccc(F)c(-n2cc(-c3cncnc3)c3nc(N(C)C4CCN(CC)CC4)ccc32)c1F.Cl [Monohydrochloride Salt]
200

====

- methodNotes: Pharmacokinetics following oral administration to rats
- Assay type: in vivo, HsdHan:WIST Norway rats
- conditionsUsed: HsdHan:WIST, plasma; 40 mg/kg oral, rat
quantityMeasured: Tmax (h)
Numbers only; they are read as h.

Indicate its recorded Tmax; the compound in question is CCCS(=O)(=O)Nc1ccc(F)c(-n2cc(-c3cncnc3)c3nc(N(C)C4CCN(CC)CC4)ccc32)c1F.Cl [Monohydrochloride Salt]
3.3

====

- methodNotes: Equilibrium solubility in various aqueous media (solubility after 2 h)
- Assay type: physicochemical
- conditionsUsed: aqueous buffer, thermodynamic from solid; Phosphate Buffer (pH 6.8)
quantityMeasured: solubility at 2 h (µg/mL)
Give the quantity in µg/mL, number only.

Answer with reported solubility at 2 h of CCCS(=O)(=O)Nc1ccc(F)c(-n2cc(-c3cncnc3)c3nc(N(C)C4CCN(CC)CC4)ccc32)c1F.Cl [Monohydrochloride Salt]
200

====

- methodNotes: Equilibrium solubility in various aqueous media (solubility after 2 h)
- Type: physicochemical
- conditionsUsed: aqueous buffer, thermodynamic from solid; McIlvaine Buffer (pH 6.8)
quantityMeasured: solubility at 2 h (µg/mL)
Write it as a number; the unit µg/mL goes unstated.

Input CCCS(=O)(=O)Nc1ccc(F)c(-n2cc(-c3cncnc3)c3nc(N(C)C4CCN(CC)CC4)ccc32)c1F.Cl [Monohydrochloride Salt] , output reported solubility at 2 h.
100

====

Collected solubility at 2 h values appear next to each entry.
- methodNotes: Equilibrium solubility in various aqueous media (solubility after 2 h)
- Type: physicochemical
- conditionsUsed: aqueous buffer, thermodynamic from solid; McIlvaine Buffer (pH 6.0)
Dear colleague, please return just the value in mg/mL, with no unit written.

| molecule | endpointUnit | recordedNumber |
| --- | --- | --- |
| CCCS(=O)(=O)Nc1ccc(F)c(-n2cc(-c3cncnc3)c3nc(N(C)C4CCN(CC)CC4)ccc32)c1F.O=C(O)CCC(=O)O [Monosuccinate Salt] | mg/mL | 3.7 |

Please look at the following molecule next.
Report measured solubility at 2 h; entry is CCCS(=O)(=O)Nc1ccc(F)c(-n2cc(-c3cncnc3)c3nc(N(C)C4CCN(CC)CC4)ccc32)c1F.Cl [Monohydrochloride Salt]
0.1
